From: patent US9132084B2

Test: in vivo
Settings: male, Gottingen, minipig, in vivo, sc, 4 ug/kg, t1/2
Protocol: Salmeterol xinafoate was formulated in 5% PEG-400 in 0.9% saline, USP, at concentrations of 0.1, 1, 10, and 100 μg/mL. 1 male and 1 female non-naive Gottingen minipigs (18.4 to 19.5 kg at the time of the IV dose) were utilized. […] Plasma samples were analyzed for salmeterol using a qualified liquid chromatography/mass spectrometry/mass mass spectrometry (LC/MS/MS) method. The lower limit of quantitation (LLOQ) was 2.50 pg/mL. Samples were analyzed within a maximum of 14.0 days of collection. […]
Assay Readout: half-life (h)
Quick note: give the figure in h, leave out the unit.

Task: I have this molecule here, OCc1cc(C(O)CNCCCCCCOCCCCc2ccccc2)ccc1O (racemic) , and I need its recorded half-life.
Result: 5.92

###

Test: Plasma pharmacokinetics following a single intravenous and subcutaneous injection of a combination of formoterol and budesonide
Conditions: female, Gottingen, minipig, in vivo, iv, Plasma concentration of formoterol, IV 0.4 μg/kg, combination, female 2-0623, 0.750 hr
Protocol: Formoterol fumarate dehydrate and budesonide were formulated in 2% PEG-400 in saline. 1 male and 1 female non-naive Gottingen minipigs (8 to 12 kg upon receipt per protocol) were utilized. The animals were housed individually. […] Plasma samples were analyzed for formoterol and budesonide using a qualified liquid chromatography/mass spectrometry/mass mass spectrometry (LC/MS/MS) method. The lower limit of quantitation (LLOQ) was 1.00 pg/mL for formoterol and 25.0 pg/mL for budesonide. […]
Assay Readout: concentration at 0.75 hr (ng/mL)
Form entry: value (ng/mL) — number only.

Task: Consider the compound COc1ccc(CC(C)NCC(O)c2ccc(O)c(NC=O)c2)cc1 (stereo not shown) and give its measured concentration at 0.75 hr.
Result: 0.0614

###

assay: Plasma pharmacokinetics following a single intravenous and subcutaneous injection of a combination of formoterol and budesonide; settings: male, Gottingen, minipig, in vivo, Tmax, formoterol 0.4 μg/kg SC1 single site, combination, male 1-0771
Assay Readout: Tmax
For clarity, give the value followed by its unit.

Task: I am curious: what Tmax value has been reported for COc1ccc(CC(C)NCC(O)c2ccc(O)c(NC=O)c2)cc1 (stereo not shown) [Formoterol, formoterol] ?
Result: 2 min

###

Assay: Plasma pharmacokinetics following a single intravenous and subcutaneous injection of a combination of formoterol and budesonide
Settings: male, Gottingen, minipig, in vivo, Plasma concentration of formoterol, SC5 0.4 μg/kg, combination, male 1-0771, 8.00 hr
Protocol: Formoterol fumarate dehydrate and budesonide were formulated in 2% PEG-400 in saline. 1 male and 1 female non-naive Gottingen minipigs (8 to 12 kg upon receipt per protocol) were utilized. The animals were housed individually. […] Plasma samples were analyzed for formoterol and budesonide using a qualified liquid chromatography/mass spectrometry/mass mass spectrometry (LC/MS/MS) method. The lower limit of quantitation (LLOQ) was 1.00 pg/mL for formoterol and 25.0 pg/mL for budesonide. […]
Assay Readout: concentration at 8 hr (ng/mL)
Report the figure in ng/mL without appending any unit label.

Task: Would you kindly share the measured concentration at 8 hr for COc1ccc(CC(C)NCC(O)c2ccc(O)c(NC=O)c2)cc1 (stereo not shown) ?
Result: 0.0181

###

assay: Plasma pharmacokinetics following single intravenous and subcutaneous injections of salmeterol xinafoate; settings: female, Gottingen, minipig, in vivo, iv
Assay Readout: concentration at 0.0833 hr (ng/mL)
Numbers only; they are read as ng/mL.

Task: If you can, please state the reported concentration at 0.0833 hr value of OCc1cc(C(O)CNCCCCCCOCCCCc2ccccc2)ccc1O (racemic) [Salmeterol] .
Result: 1.3
